- Test system: G-CSF
- protocol-conditions: 20 μg/animal PO
measured-metric: Average [G-CSF] at 6 hrs (pg/mL)
Quick reminder: number only, in pg/mL, skip the unit.

Req: Param readout= Average [G-CSF] at 6 hrs; system= G-CSF; entry= C[C@H](N)C(=S)N1CCC[C@H]1B(O)O [ARI-2243] ; returns value.
Resp: 330

Req: API: value(readout=Average [G-CSF] at 6 hrs, system=G-CSF) for record CC1([C@H](N)C(=O)N2CCC[C@H]2B(O)O)CCCCC1 (relative stereo) [ARI-4175CH]
Resp: 51000

Req: # get_value(readout= Average [G-CSF] at 6 hrs, system= G-CSF) for NC(N)=NCCC[C@H](N)C(=O)N1CCC[C@H]1B(O)O [Arg-boroPro]
Resp: 320

Req: Recall the recorded Average [G-CSF] at 6 hrs for N[C@@H](CCC(=O)O)C(=O)N1CCC[C@H]1B(O)O [compound 8120, Glu-boroPro] with G-CSF and state it.
Resp: 340

Req: Give Average [G-CSF] at 6 hrs (G-CSF) of the following compound: N[C@H](C(=O)N1CCC[C@H]1B(O)O)C12CC3CC(CC(C3)C1)C2 (relative stereo) [ARI-5544, Gly(1-adamantyl)-boroPro]
Resp: 30000

Data credit: patent US11096924B2
